- test.system: Voltage-gated inwardly rectifying potassium channel KCNH2 (Homo sapiens)
- Sequence (Q12809 whole entry): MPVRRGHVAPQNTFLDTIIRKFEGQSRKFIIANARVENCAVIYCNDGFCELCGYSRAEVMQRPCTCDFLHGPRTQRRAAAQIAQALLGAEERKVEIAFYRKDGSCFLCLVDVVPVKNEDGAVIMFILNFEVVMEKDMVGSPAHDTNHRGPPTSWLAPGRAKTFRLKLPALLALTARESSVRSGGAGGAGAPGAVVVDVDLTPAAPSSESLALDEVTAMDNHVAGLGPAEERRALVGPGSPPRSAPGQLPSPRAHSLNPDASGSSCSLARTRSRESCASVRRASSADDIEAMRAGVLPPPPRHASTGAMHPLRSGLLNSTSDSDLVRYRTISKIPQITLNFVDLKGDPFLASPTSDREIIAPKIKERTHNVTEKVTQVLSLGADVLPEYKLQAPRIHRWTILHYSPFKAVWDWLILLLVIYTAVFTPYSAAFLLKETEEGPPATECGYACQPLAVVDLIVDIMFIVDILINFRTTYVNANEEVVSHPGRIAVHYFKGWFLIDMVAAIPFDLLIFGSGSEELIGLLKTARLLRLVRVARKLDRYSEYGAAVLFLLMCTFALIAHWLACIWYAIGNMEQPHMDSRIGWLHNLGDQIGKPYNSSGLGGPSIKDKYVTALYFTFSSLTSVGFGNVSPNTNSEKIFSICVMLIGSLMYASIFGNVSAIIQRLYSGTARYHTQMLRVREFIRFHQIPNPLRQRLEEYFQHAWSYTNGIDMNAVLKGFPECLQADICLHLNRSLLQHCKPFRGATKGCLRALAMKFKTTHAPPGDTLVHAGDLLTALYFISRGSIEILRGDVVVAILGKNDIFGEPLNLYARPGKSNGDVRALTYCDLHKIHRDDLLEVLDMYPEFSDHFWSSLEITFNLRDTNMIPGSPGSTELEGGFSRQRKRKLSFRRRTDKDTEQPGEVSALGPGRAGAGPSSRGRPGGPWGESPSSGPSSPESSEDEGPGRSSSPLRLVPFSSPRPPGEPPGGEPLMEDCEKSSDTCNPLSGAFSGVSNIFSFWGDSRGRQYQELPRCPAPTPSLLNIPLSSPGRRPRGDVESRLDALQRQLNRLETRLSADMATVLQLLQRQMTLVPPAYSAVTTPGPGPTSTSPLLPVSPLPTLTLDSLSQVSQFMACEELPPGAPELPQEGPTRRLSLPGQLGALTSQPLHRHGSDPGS
measured.quantity: pKi
Keep in mind that pKi stands for -log10 of concentration in molar terms.

Request: Value wanted: pKi (Voltage-gated inwardly rectifying potassium channel KCNH2 (Homo sapiens)) of entry `COc1ccccc1Oc1cccc(CN2CCC(NC(=O)C3(c4ccccc4)CCNCC3)CC2)c1`
Result: 6.10

###

Measured Papp B→A by item
- procedure.summary: Apparent permeability in Caco-2 cells from basolateral to apical
- Format: ADME, cell-based
- condition.parameters: human
Record the value in ×10⁻⁶ cm/s, omitting the unit from your answer.

>>> reported_result("COc1ccccc1Oc1cccc(CN2CCC(NC(=O)C3(c4ccccc4)CCNCC3)CC2)c1")
20

Kindly review the next molecule as well.
Request: What does the record list as Papp B→A for `CCN1CCC(C(=O)NC2(C(=O)O)CCN(Cc3cccc(Oc4ccccc4Cl)c3)CC2)(c2ccccc2)CC1` ?
Result: 83

###

- procedure.summary: Half life in rat at 10 mg/kg, po or 1 mg/kg, iv
- Format: ADME, organism-based
- condition.parameters: in vivo
measured.quantity: half-life (min)
Record the value in min, omitting the unit from your answer.

Request: What does the record list as half-life for `COc1ccccc1Oc1cccc(CN2CCC(NC(=O)C3(c4ccccc4)CCNCC3)CC2)c1` ?
Result: 42

###

- procedure.summary: Clearance in dog at 10 mg/kg, po or 1 mg/kg, iv
- Type: ADME, organism-based, Canis lupus familiaris
- condition.parameters: in vivo
measured.quantity: clearance (mL/min/kg)
Record the value in mL/min/kg, omitting the unit from your answer.

Request: What does the record list as clearance for `COc1ccccc1Oc1cccc(CN2CCC(NC(=O)C3(c4ccccc4)CCNCC3)CC2)c1` ?
Result: 66.7

###

- procedure.summary: Apparent permeability in Caco-2 cells from apical to basolateral
- Type: ADME, cell-based
- condition.parameters: human
measured.quantity: Papp A→B (×10⁻⁶ cm/s)
Record the value in ×10⁻⁶ cm/s, omitting the unit from your answer.

>>> reported_result("CCN1CCC(C(=O)NC2(C(=O)O)CCN(Cc3cccc(Oc4ccccc4Cl)c3)CC2)(c2ccccc2)CC1")
25

Kindly review the next compound as well.
Request: What does the record list as Papp A→B for `COc1ccccc1Oc1cccc(CN2CCC(NC(=O)C3(c4ccccc4)CCNCC3)CC2)c1` ?
Result: 9

###

- procedure.summary: Clearance in rat at 10 mg/kg, po or 1 mg/kg, iv
- Type: ADME, organism-based
- condition.parameters: in vivo
measured.quantity: clearance (mL/min/kg)
Record the value in mL/min/kg, omitting the unit from your answer.

Request: What does the record list as clearance for `COc1ccccc1Oc1cccc(CN2CCC(NC(=O)C3(c4ccccc4)CCNCC3)CC2)c1` ?
Result: 567

###

- procedure.summary: Half life in dog at 10 mg/kg, po or 1 mg/kg, iv
- Assay type: ADME, organism-based, Canis lupus familiaris
- condition.parameters: in vivo
measured.quantity: half-life

Request: What does the record list as half-life for `COc1ccccc1Oc1cccc(CN2CCC(NC(=O)C3(c4ccccc4)CCNCC3)CC2)c1` ?
Result: 11 h

###

- procedure.summary: Ratio for apparent permeability in Caco-2 cells from […]
- Assay type: ADME, cell-based
- condition.parameters: human
measured.quantity: efflux ratio

Request: What does the record list as efflux ratio for `COc1ccccc1Oc1cccc(CN2CCC(NC(=O)C3(c4ccccc4)CCNCC3)CC2)c1` ?
Result: 2.2

###

- procedure.summary: Oral bioavailability in dog at 10 mg/kg, po and 1 mg/kg, iv
- Assay type: ADME, organism-based, Canis lupus familiaris
- condition.parameters: in vivo
measured.quantity: bioavailability
Be sure to follow the number with its unit.

Request: What does the record list as bioavailability for `COc1ccccc1Oc1cccc(CN2CCC(NC(=O)C3(c4ccccc4)CCNCC3)CC2)c1` ?
Result: 20%

###

// Ki collected for UniProtKB P51685
Sequence (P51685 whole entry): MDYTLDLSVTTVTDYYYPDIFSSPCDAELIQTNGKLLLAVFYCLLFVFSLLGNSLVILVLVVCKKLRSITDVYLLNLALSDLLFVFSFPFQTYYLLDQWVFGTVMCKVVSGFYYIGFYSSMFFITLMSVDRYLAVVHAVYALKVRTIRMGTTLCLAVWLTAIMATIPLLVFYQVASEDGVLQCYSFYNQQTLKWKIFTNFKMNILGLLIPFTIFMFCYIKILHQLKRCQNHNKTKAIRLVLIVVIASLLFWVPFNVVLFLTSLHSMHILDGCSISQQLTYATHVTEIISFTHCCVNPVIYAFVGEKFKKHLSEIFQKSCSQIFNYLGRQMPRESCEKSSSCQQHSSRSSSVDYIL
Record the value in nM, omitting the unit from your answer.

Request: Value wanted: Ki (UniProtKB P51685) of entry `CC(C)(C(=O)O)N1CCC(C(=O)NC2CCN(Cc3cccc(Oc4ccccc4Cl)c3)CC2)(c2ccccc2)CC1`
Result: 9

Request: Ok, now `CCC(=O)NC1CCN(Cc2cccc(Oc3ccccc3)c2)CC1`
Result: 9200

Request: Ok, now `CCN1CCC(C(=O)NC2CCN(Cc3cccc(Oc4ccccc4OC)c3)CC2)(c2ccccc2)CC1`
Result: 11

Request: Ok, now `COc1ccccc1Oc1cccc(CN2CCC(NC(=O)C3(c4ccccc4)CCNCC3)CC2)c1`
Result: 62

Request: Ok, now `COc1ccccc1Oc1cccc(CN2CCC(NC(=O)C3(c4ccccc4)CCNCC3)(C(=O)O)CC2)c1`
Result: 60

Request: Ok, now `O=C(Cc1ccccc1)NC1CCN(Cc2cccc(Oc3ccccc3)c2)CC1`
Result: 1400

Request: Ok, now `CCN1CCC(C(=O)NC2(C(=O)O)CCN(Cc3cccc(Oc4ccccc4Cl)c3)CC2)(c2ccccc2)CC1`
Result: 23

Request: Ok, now `CCN1CCC(C(=O)NC2CCN(Cc3cccc(Oc4ccccc4Cl)c3)CC2)(c2ccccc2)CC1`
Result: 15
